Molecular target: hMMP-1 (Homo sapiens, UniProt P03956)
Sequence (P03956 100-469): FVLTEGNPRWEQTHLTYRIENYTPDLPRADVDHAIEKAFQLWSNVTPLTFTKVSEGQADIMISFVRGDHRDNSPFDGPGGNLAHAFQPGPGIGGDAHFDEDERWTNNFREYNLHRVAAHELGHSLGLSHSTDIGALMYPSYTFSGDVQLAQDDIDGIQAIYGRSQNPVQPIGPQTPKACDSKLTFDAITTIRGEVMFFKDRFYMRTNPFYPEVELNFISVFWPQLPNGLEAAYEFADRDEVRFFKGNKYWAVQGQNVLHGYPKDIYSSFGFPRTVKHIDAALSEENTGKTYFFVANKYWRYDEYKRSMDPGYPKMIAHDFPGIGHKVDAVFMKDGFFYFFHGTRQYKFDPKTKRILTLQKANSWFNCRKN
Test: In vitro metalloprotease inhibition, fluorogenic MCA peptide substrate
Details: recombinant human enzyme, APMA activated, room temperature, pH 7.5
measureName: IC50 (µM)
Report the value in µM with no unit label.

These recorded examples may help you get a feel for the data.
- smilesNotation: "C[C@H](C(=O)NO)N(CCN1CCOCC1)S(=O)(=O)c1ccc(NC(=O)c2ccc(Br)cc2)cc1"
  IC50 / µM: 4.85
- smilesNotation: "CCCCCCc1ccc(C(=O)Nc2ccc(S(=O)(=O)N(CCN3CCOCC3)[C@@H](C(=O)NO)C(C)C)cc2)cc1"
  IC50 / µM: 5.6

Request the reported IC50 associated with "CC(C)[C@H](C(=O)NO)N(CCN1CCOCC1)S(=O)(=O)c1ccc(NC(=O)c2ccccc2)cc1" 3.4

Request the reported IC50 associated with "CCCc1ccc(C(=O)Nc2ccc(S(=O)(=O)N(CCN3CCOCC3)[C@@H](C(=O)NO)C(C)C)cc2)cc1" 4

Request the reported IC50 associated with "CC(C)[C@H](C(=O)NO)N(CCN1CCOCC1)S(=O)(=O)c1ccc(NC(=O)c2ccc(Br)cc2)cc1" 0.88

Request the reported IC50 associated with "CCCCc1ccc(C(=O)Nc2ccc(S(=O)(=O)N(CCN3CCOCC3)[C@@H](C(=O)NO)C(C)C)cc2)cc1" 4

###

Quick record: pIC50, hMMP-9 (Homo sapiens, UniProt P14780).
Where a name gives a salt, the structure may show the parent alone.
Recall that pIC50 is obtained by taking minus log10 of the concentration measured in molar.

- molecule: "C[C@H](C(=O)NO)N(CCN1CCOCC1)S(=O)(=O)c1ccc(NC(=O)c2ccccc2)cc1 [Example 4a, Monohydrochloride]"
  obsValue: 7.62
- molecule: "CCCCCc1ccc(C(=O)Nc2ccc(S(=O)(=O)N(CCN3CCOCC3)[C@H](Cc3ccccc3)C(=O)NO)cc2)cc1 [Example 15]"
  obsValue: 6.54

Request the reported pIC50 associated with CC(C)[C@H](C(=O)NO)N(CCN1CCOCC1)S(=O)(=O)c1ccc(NC(=O)c2ccc(Br)cc2)cc1 [Example 13] 8.72

Request the reported pIC50 associated with CC(C)[C@H](C(=O)NO)N(CCN1CCOCC1)S(=O)(=O)c1ccc(NC(=O)c2ccccc2)cc1 [Example 12] 6.61

Request the reported pIC50 associated with CCCCc1ccc(C(=O)Nc2ccc(S(=O)(=O)N(CCN3CCOCC3)[C@@H](C(=O)NO)C(C)C)cc2)cc1 [Example 8] 7.51

Request the reported pIC50 associated with CCCCCc1ccc(C(=O)Nc2ccc(S(=O)(=O)N[C@H](Cc3ccccc3)C(=O)NO)cc2)cc1 [Example 14] 6.79

Request the reported pIC50 associated with CCCc1ccc(C(=O)Nc2ccc(S(=O)(=O)N(Cc3cccnc3)[C@@H](C(=O)NO)C(C)C)cc2)cc1 [Example 11] 7.62

###

Molecular target: hMMP-1 (Homo sapiens)
Experiment: In vitro metalloprotease inhibition, fluorogenic MCA peptide substrate
Settings: recombinant human enzyme, APMA activated, room temperature, pH 7.5
pIC50: −log10 of the molar value.
Quick reference: pIC50 of the listed items.

- smilesNotation: "C[C@H](C(=O)NO)N(CCN1CCOCC1)S(=O)(=O)c1ccc(NC(=O)C2CCCCC2)cc1"
  pIC50: "< 5.00"
- smilesNotation: "C[C@H](C(=O)NO)N(CCN1CCOCC1)S(=O)(=O)c1ccc(NC(=O)c2ccccc2)cc1"
  pIC50: "< 5.00"

Request the reported pIC50 associated with "CCCCCc1ccc(C(=O)Nc2ccc(S(=O)(=O)N(CCN3CCOCC3)[C@@H](C(=O)NO)C(C)C)cc2)cc1" 5.40

Request the reported pIC50 associated with "CCCCCc1ccc(C(=O)Nc2ccc(S(=O)(=O)N[C@H](Cc3ccccc3)C(=O)NO)cc2)cc1" < 5.00

###

Biological target: hMMP-13 (Homo sapiens)
Assay: In vitro metalloprotease inhibition, fluorogenic MCA peptide substrate
Settings: recombinant human enzyme, APMA activated, room temperature, pH 7.5
Where a name gives a salt, the structure may show the parent alone.
Quick reference: log10(IC50) of the listed items.
The figures below represent log10 of IC50, where IC50 is stated in nM.

These recorded examples may help you get a feel for the data.
- compound: "C[C@H](C(=O)NO)N(CCN1CCOCC1)S(=O)(=O)c1ccc(NC(=O)c2ccccc2)cc1 [Example 4a, Monohydrochloride]"
  log10(IC50): 0.34
- compound: "C[C@H](C(=O)NO)N(CCN1CCOCC1)S(=O)(=O)c1ccc(NC(=O)C2CCCCC2)cc1"
  log10(IC50): 2.40
- compound: "C[C@H](C(=O)NO)N(CCN1CCOCC1)S(=O)(=O)c1ccc(NC(=O)c2ccc(Br)cc2)cc1"
  log10(IC50): -0.46
- compound: "C[C@H](C(=O)NO)N(CCN1CCOCC1)S(=O)(=O)c1ccc(NC(=O)c2ccccc2)cc1 [Example 4]"
  log10(IC50): 0.40
- compound: "CC(C)[C@H](C(=O)NO)N(CCN1CCOCC1)S(=O)(=O)c1ccc(NC(=O)c2ccc(Br)cc2)cc1"
  log10(IC50): -0.40
- compound: "CC(C)[C@H](C(=O)NO)N(CCN1CCOCC1)S(=O)(=O)c1ccc(NC(=O)c2ccccc2)cc1"
  log10(IC50): 1.06
- compound: "CCCc1ccc(C(=O)Nc2ccc(S(=O)(=O)N(CCN3CCOCC3)[C@@H](C(=O)NO)C(C)C)cc2)cc1"
  log10(IC50): -0.52
- compound: "CCCCc1ccc(C(=O)Nc2ccc(S(=O)(=O)N(CCN3CCOCC3)[C@@H](C(=O)NO)C(C)C)cc2)cc1"
  log10(IC50): -1.00

Then this compound:
Which measured log10(IC50) belongs to "CCCc1ccc(C(=O)Nc2ccc(S(=O)(=O)N(Cc3cccnc3)[C@@H](C(=O)NO)C(C)C)cc2)cc1" , tested on hMMP-13 (Homo sapiens)? -0.30

###

Quick record: IC50, hMMP-3 (Homo sapiens).
Report the value in nM with no unit label.

- compound: "CC(C)[C@H](C(=O)NO)N(CCN1CCOCC1)S(=O)(=O)c1ccc(NC(=O)c2ccccc2)cc1"
  unitText: "nM"
  IC50: 800

Which measured IC50 belongs to CCCCCCc1ccc(C(=O)Nc2ccc(S(=O)(=O)N(CCN3CCOCC3)[C@@H](C(=O)NO)C(C)C)cc2)cc1 [Example 10a] , tested on hMMP-3 (Homo sapiens)? 180

Which measured IC50 belongs to "CCCCCc1ccc(C(=O)Nc2ccc(S(=O)(=O)N(CCN3CCOCC3)[C@@H](C(=O)NO)C(C)C)cc2)cc1" , tested on hMMP-3 (Homo sapiens)? 55

Which measured IC50 belongs to "CCCCCc1ccc(C(=O)Nc2ccc(S(=O)(=O)N(CCN3CCOCC3)[C@H](Cc3ccccc3)C(=O)NO)cc2)cc1" , tested on hMMP-3 (Homo sapiens)? 140

###

Molecular target: hMMP-2 (Homo sapiens, UniProt P08253)
Sequence (P08253 110-660): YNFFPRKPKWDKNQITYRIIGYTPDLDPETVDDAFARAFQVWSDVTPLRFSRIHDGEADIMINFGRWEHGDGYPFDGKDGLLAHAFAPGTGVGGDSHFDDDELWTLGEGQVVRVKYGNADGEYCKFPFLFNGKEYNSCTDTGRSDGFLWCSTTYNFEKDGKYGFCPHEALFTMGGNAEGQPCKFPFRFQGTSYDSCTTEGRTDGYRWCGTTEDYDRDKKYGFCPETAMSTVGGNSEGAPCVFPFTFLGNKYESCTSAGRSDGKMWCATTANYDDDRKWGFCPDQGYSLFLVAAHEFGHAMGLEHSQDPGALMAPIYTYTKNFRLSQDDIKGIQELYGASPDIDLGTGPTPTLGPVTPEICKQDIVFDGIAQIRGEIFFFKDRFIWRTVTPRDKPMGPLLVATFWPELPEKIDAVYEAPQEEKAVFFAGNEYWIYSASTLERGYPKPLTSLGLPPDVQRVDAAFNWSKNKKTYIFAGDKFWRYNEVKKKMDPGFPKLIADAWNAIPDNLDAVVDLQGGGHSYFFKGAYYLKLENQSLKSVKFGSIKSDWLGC
Test: In vitro metalloprotease inhibition, fluorogenic MCA peptide substrate
Format: biochemical
Details: room temperature, pH 7.5
pIC50: −log10 of the molar value.
measureName: pIC50

These recorded examples may help you get a feel for the data.
- compound: "CCCCCCc1ccc(C(=O)Nc2ccc(S(=O)(=O)N(CCN3CCOCC3)[C@@H](C(=O)NO)C(C)C)cc2)cc1 [Example 10a]"
  measuredOn: "hMMP-2 (Homo sapiens, UniProt P08253)"
  pIC50: "> 10.00"
- compound: "CCCCCc1ccc(C(=O)Nc2ccc(S(=O)(=O)N(CCN3CCOCC3)[C@@H](C(=O)NO)C(C)C)cc2)cc1 [Example 9]"
  measuredOn: "hMMP-2 (Homo sapiens, UniProt P08253)"
  pIC50: "> 10.00"
- compound: "CCCCCc1ccc(C(=O)Nc2ccc(S(=O)(=O)N[C@H](Cc3ccccc3)C(=O)NO)cc2)cc1 [Example 14]"
  measuredOn: "hMMP-2 (Homo sapiens, UniProt P08253)"
  pIC50: "> 10.00"

Request the reported pIC50 associated with CCCc1ccc(C(=O)Nc2ccc(S(=O)(=O)N(Cc3cccnc3)[C@@H](C(=O)NO)C(C)C)cc2)cc1 [Example 11] 10.00
